Target: Melanin-concentrating hormone receptor 1 (Homo sapiens) (UniProt Q99705)
Assay: antagonist activity at MCH receptor 1 – cell-based, fluorescence, set 4, counter-screen for GPR7 antagonist project, dose response (AID 588568)
Details: MCHR1-expressing cells, fluorescence antagonist assay; run 1
The source made the active and inactive calls. How the calls were made is not given here.
Outcome field: choose from class 1 = active, class 0 = inactive

Solved cases below.
COc1ccc(Oc2c(C)c(C)nn(Cc3ccccc3C)c2=O)cc1
class 1
COc1ccc(Oc2c(Cl)cnn(-c3ccc(Br)cc3)c2=O)cc1
class 1
CCCCOC(=O)C(c1ccccc1Cl)n1ncc(Cl)c(Oc2ccc(OC)cc2)c1=O (centres undefined)
class 0

Okay, next one:
Look up the recorded call for COc1ccc(Oc2c(Cl)cnn(C3=Nc4ccccc4Sc4ccccc43)c2=O)cc1 in this test.
class 0

* * *

Biological target: Melanin-concentrating hormone receptor 1 (Homo sapiens) (UniProt Q99705)
Experiment: antagonist activity at MCH receptor 1 – cell-based, fluorescence, set 4, counter-screen for GPR7 antagonist project, dose response (AID 588568)
Conditions: MCHR1-expressing cells, fluorescence antagonist assay; run 1
Activity calls are given as the source filed them. No rule for the calls is given here.
Outcome field: choose from true (1) (active), false (0) (inactive)

Solved cases below.
CC(C)Oc1ccc(Oc2c(Cl)cnn(Cc3cccc4ccccc34)c2=O)cc1
false (0)
COc1ccc(Oc2c(Br)nn(-c3cccc(C)c3)c(=O)c2Oc2ccc(OC)cc2)cc1
true (1)
CCOC(=O)C(c1ccccc1Cl)n1ncc(Cl)c(Oc2ccc(OC)cc2)c1=O (configuration not stated)
true (1)

Look up the recorded call for Cc1cc(C)cc(-n2ncc(Cl)c(Oc3ccc(-c4ccccc4)cc3)c2=O)c1 in this test.
true (1)

Now the compound COc1ccc(Oc2c(Cl)cnn(C(CO)c3cccc4ccccc34)c2=O)cc1 (configuration not stated)
true (1)

Now the compound COc1ccc(Oc2c(Cl)cnn(C(c3ccccc3)c3c(C)noc3C)c2=O)cc1 (configuration not stated)
false (0)

Now the compound COc1ccc(Oc2c(Cl)cnn(-c3ccccc3)c2=O)cc1
false (0)

* * *

Target: Melanin-concentrating hormone receptor 1 (Homo sapiens) (UniProt Q99705)
Assay: antagonist activity at MCH receptor 1 – cell-based, fluorescence, set 4, counter-screen for GPR7 antagonist project, dose response (AID 588568)
Conditions: MCHR1-expressing cells, fluorescence antagonist assay; run 1
Activity calls are given as the source filed them. The rule behind the calls is not given here.
metric: IC50

Recorded IC50, per entry:
COc1ccc(Oc2c(Cl)cnn(Cc3cccc(C(F)(F)F)c3)c2=O)cc1
4.7 µM
Cc1ccc(-n2ncc(Cl)c(Oc3ccc(O)cc3)c2=O)cc1
> 20 µM (inactive)
COc1ccc(Oc2c(Cl)cnn(CC3CCCC3)c2=O)cc1
inactive
O=Cc1ccc(Oc2c(Cl)cnn(Cc3cccc4ccccc34)c2=O)cc1
7.33 µM
Cc1ccccc1Cn1ncc(Cl)c(Oc2ccc(CO)cc2)c1=O
4.92 µM

Next item in the queue.
Give recorded IC50 with Melanin-concentrating hormone receptor 1 (Homo sapiens) (UniProt Q99705) for the following molecule: COc1ccc(Oc2c(Cl)cnn(Cc3ccc(C4CCCCC4)c4ccccc34)c2=O)cc1
> 20 µM (inactive)

* * *

Target: Melanin-concentrating hormone receptor 1 (Homo sapiens)
Assay: antagonist activity at MCH receptor 1 – cell-based, fluorescence, set 4, counter-screen for GPR7 antagonist project, dose response (AID 588568)
Conditions: MCHR1-expressing cells, fluorescence antagonist assay; run 1
The source made the active and inactive calls. The rule behind the calls is not given here.
Outcome field: choose from active, inactive

Solved cases below.
COc1ccc(Oc2c(/C=N\O)cnn(Cc3cccc4ccccc34)c2=O)cc1
inactive
COc1ccc(Oc2c(Cl)cnn(C(c3ccccc3)c3cccc4ccccc34)c2=O)cc1 (stereo not given)
inactive
COc1ccc(Oc2c(C#N)cnn(Cc3ccccc3C)c2=O)cc1
inactive
COc1ccc(Oc2c(Cl)cnn(C(C(=O)OCCC3CCCC3)c3ccccc3Cl)c2=O)cc1 (stereo not given)
inactive
COc1ccc(Oc2c(Cl)c(C)nn(Cc3ccccc3C)c2=O)cc1
active

Look up the recorded call for O=c1c(Oc2ccc(CO)cc2)c(Cl)cnn1Cc1ccc2ccccc2c1 in this test.
active

Now the compound COc1ccc(Oc2c(Cl)cnn(-c3ccc(C(F)(F)F)cc3)c2=O)cc1
active

Now the compound COc1ccccc1CNC(=O)c1cnn(-c2ccc(Cl)cc2)c1C(F)(F)F
active

Now the compound COc1ccc(Oc2c(Cl)cnn(C(CO)c3ccccc3)c2=O)cc1 (stereo not given)
inactive

Now the compound COCc1ccc(Oc2c(Cl)cnn(Cc3cccc4ccccc34)c2=O)cc1
inactive
